test_protocol: inhibitors of poly I:C-induced TLR3 signaling, primary screen, cell-based, poly I:C stimulus, luciferase, 10K MLSCN set (AID 602277)
experimental_parameters: HEK293-TLR3 RL24 IRF3 luciferase reporter, at 10 µM, stronger effect = higher value
Calls of active or inactive are those of the source.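 How the source made its calls: active means inhibition of the reporter signal at or above 50%; inactive means inhibition below 50%.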
outcome_measure: inhibition

Some compounds with recorded inhibition:
{"columns": ["compound", "outcome_measure", "result"],
 "data": [
  ["O=C(c1ccc2c(c1)OCCO2)N1CCCCC1", "inhibition", "18.3% (inactive)"],
  ["Cc1[nH]nc2c1C(CCc1ccccc1)C(C#N)=C(N)O2 (stereo unspecified)", "inhibition", "2.77% (inactive)"],
  ["O=C(NC1(C(F)(F)F)C(=O)Nc2c1c(=O)[nH]c(=O)n2Cc1ccco1)C1CCCCC1 (stereo unspecified)", "inhibition", "19.7% (inactive)"],
  ["Cc1cc(=O)oc2c(CN3CCN(C)CC3)c(O)c(Cl)cc12", "inhibition", "17.6% (inactive)"]
]}

[ask] For the compound Cc1cc(-c2ccc(F)cc2)nc2cc(C(N)=O)nn12 , give its reported inhibition.
[reply] -21.7% (inactive)

[ask] For the compound Cc1cccc(C)c1NC(=O)C1CCCCN1C (stereo unspecified) , give its reported inhibition.
[reply] 35.5% (inactive)

[ask] For the compound CCCCOc1ccc(-c2nnc(N)s2)cc1 , give its reported inhibition.
[reply] -89.4% (inactive)

[ask] For the compound CCCCC[C@H](O)/C=C/[C@@H]1[C@@H](CCCCCCC(=O)O)[C@@H](O)C[C@H]1O , give its reported inhibition.
[reply] 33.8% (inactive)

[ask] For the compound COc1ccccc1C1(CC(=O)N2CCOCC2)CCOC(C(C)C)C1 (stereo unspecified) , give its reported inhibition.
[reply] -0.559% (inactive)

[ask] For the compound CN1CCN(c2nc3c(c(=O)n(C)c(=O)n3C)n2Cc2cccc3ccccc23)CC1 , give its reported inhibition.
[reply] 19.8% (inactive)

[ask] For the compound CCN(CC)CC#CCOC(=O)C(O)(c1ccccc1)C1CCCCC1 (stereo unspecified) , give its reported inhibition.
[reply] 30.4% (inactive)

###

test_protocol: inhibitors of Chlamydomonas gravitaxis, primary screen, whole organism, Chlamydomonas reinhardtii, WT vs cilia-less mutant, absorbance, 96-well (AID 463189);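 further: 0% = wild type cc124 cells in DMSO and 100% = ciliumless bld1 mutant cells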
experimental_parameters: OD600 absorbance, 2 days, at 10 µM, stronger effect = higher value
outcome_measure: inhibition (%)
Please state the figure in %; there is no need to write the unit.

Some compounds with recorded inhibition:
{"columns": ["compound", "inhibition [%]"],
 "data": [
  ["Cc1c(C2Nc3ccccc3NC3=C2C(=O)CC(C)(C)C3)cnn1C (centres undefined)", 14.4],
  ["O=S(=O)(c1ccc(Cl)cc1)N1CCC(N2CCCCCC2)CC1", 121],
  ["CCOC(=O)c1cc(C)n(Cc2cccc(OC)c2OC)c1C", 26.9],
  ["COc1ccc(OC)c(C(O)c2coc3ccc(O)c(CN4CCOCC4)c23)c1 (centres undefined)", 36.3],
  ["Cc1ccc(C#N)c(SCc2cc3c(cc2Cl)OCO3)n1", 28.8],
  ["CC1(C)NC(=O)N(CC(O)Cn2nnc3ccccc32)C1=O (centres undefined)", 6.41],
  ["CC1(C)Cc2c(sc(NC(=O)c3ccc(Br)o3)c2C#N)CO1", 8.5],
  ["CC(NCCC(c1ccccc1)c1ccccc1)c1ccccc1 (centres undefined)", 59.1],
  ["O=C(Nc1nc(=O)c2ccccc2s1)c1ccccc1", 13.1],
  ["CCCc1cc(-n2ccnc2C)n2c(nc3ccccc32)c1C#N", 4.33]
]}

[ask] For the compound COc1cccc(OC)c1-c1nn2c(-c3ccco3)nnc2s1 , give its reported inhibition.
[reply] 5.78

[ask] For the compound CCOc1cccc(-c2nnc3sc(-c4ccco4)nn23)c1 , give its reported inhibition.
[reply] 18.3
